- Test system: Leishmania infantum
- measurement description: Percentage of activity against Leishmania infantum at 3.13 uM
- Format: functional
property label: Percent antileishmanial activity (reduction of parasite load) (%)
Answers are plain numbers, in %.

[[record]]
molecule = "COc1ccc2nc3cc(Cl)ccc3c(NCCCCCCNc3c4ccc(Cl)cc4nc4ccc(OC)cc34)c2c1"
observed_value = 0

[[record]]
molecule = "COc1ccc2nc3cc(Cl)ccc3c(NCCCN(CCCNc3c4ccc(Cl)cc4nc4ccc(OC)cc34)C(=O)C(CNC(=O)OCC3c4ccccc4-c4ccccc43)NC(=O)OC(C)(C)C)c2c1 (configuration not stated)"
observed_value = 70

[[record]]
molecule = "COc1ccc2nc3cc(Cl)ccc3c(NCCCN(CCCNc3c4ccc(Cl)cc4nc4ccc(OC)cc34)C(=O)C(N)CN)c2c1 (configuration not stated)"
observed_value = 0


# return Percent antileishmanial activity (reduction of parasite load) for each item in the list
1. COc1ccc2nc3cc(Cl)ccc3c(NCCCN(CCCNc3c4ccc(Cl)cc4nc4ccc(OC)cc34)C(=O)C(CN)NC(=O)OC(C)(C)C)c2c1 (configuration not stated)
2. COc1ccc2nc3cc(Cl)ccc3c(NCCCN(CCCNc3c4ccc(Cl)cc4nc4ccc(OC)cc34)C(=O)C(CC(=O)O)NC(=O)OC(C)(C)C)c2c1 (configuration not stated)

[0, 0]

# return Percent antileishmanial activity (reduction of parasite load) for each item in the list
1. COc1ccc2nc3cc(Cl)ccc3c(NCCCN(CCCNc3c4ccc(Cl)cc4nc4ccc(OC)cc34)C(=O)CCC(=O)O)c2c1
2. COc1ccc2nc3cc(Cl)ccc3c(NCCCN(CCCNc3c4ccc(Cl)cc4nc4ccc(OC)cc34)C(=O)CNC(=O)OC(C)(C)C)c2c1

0
40
